What IC50 was measured for each of the following?
assay.target: Bifunctional epoxide hydrolase 2 (Homo sapiens)
Sequence (P34913 whole entry): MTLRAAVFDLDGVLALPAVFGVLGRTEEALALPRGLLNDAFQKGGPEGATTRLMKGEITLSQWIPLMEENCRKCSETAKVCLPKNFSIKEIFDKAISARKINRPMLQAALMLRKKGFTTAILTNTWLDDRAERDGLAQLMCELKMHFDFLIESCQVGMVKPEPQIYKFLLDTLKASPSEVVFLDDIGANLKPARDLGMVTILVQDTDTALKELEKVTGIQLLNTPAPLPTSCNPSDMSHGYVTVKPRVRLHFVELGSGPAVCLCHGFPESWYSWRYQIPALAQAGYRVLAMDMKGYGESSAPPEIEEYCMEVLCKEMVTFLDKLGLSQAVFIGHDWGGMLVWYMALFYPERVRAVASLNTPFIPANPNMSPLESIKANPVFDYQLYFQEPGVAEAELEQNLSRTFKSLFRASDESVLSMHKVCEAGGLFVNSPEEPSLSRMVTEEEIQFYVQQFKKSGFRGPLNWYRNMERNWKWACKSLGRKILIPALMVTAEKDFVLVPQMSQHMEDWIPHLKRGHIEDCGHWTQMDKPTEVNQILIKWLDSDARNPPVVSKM
assay.text: Inhibition of human recombinant soluble epoxide hydrolase using CMNPC as substrate after 10 mins by fluorescent assay
Number in nM, nothing else.

Query :: Can you share its IC50? I mean this compound: "CCCOCCNC(=O)NC12CC3CC(CC(C3)C1)C2"
Result :: 243

Query :: And "Cc1ccc(NC(=O)NCC23CC4CC(CC(C4)C2)C3)cc1Cl" ?
Result :: 0.4

Query :: What about "CC(C)CCOc1ccc(NC(=O)Nc2ccc(OCCC(C)C)cc2)cc1" ?
Result :: 6.5

Query :: Next record, please: O=C(NCCc1ccccc1)NC1C2CC3CC(C2)CC1C3 (stereo unspecified)
Result :: 4.5

Query :: Please give the result for "O=C(NCc1cccc(Cl)c1)Nc1cccc(C(F)(F)F)c1F" too.
Result :: 3.7

Query :: Similarly, "O=C(NCC12CC3CC(CC(C3)C1)C2)Nc1ccc(F)c(F)c1F" ?
Result :: 0.4

###

assay.target: Epoxide hydrolase B (Mycobacterium tuberculosis) (UniProt P95276)
Sequence (P95276 whole entry): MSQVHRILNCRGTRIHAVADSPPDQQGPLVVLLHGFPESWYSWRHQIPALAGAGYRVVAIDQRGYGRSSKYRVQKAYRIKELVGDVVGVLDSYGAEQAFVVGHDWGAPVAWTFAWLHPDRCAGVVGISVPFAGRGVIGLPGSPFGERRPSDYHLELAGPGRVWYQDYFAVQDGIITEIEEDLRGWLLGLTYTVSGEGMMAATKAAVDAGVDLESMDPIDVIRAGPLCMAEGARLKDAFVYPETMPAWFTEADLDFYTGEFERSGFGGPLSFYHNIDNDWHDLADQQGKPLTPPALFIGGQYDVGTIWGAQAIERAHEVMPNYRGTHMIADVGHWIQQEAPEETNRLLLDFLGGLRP
assay.text: Inhibition of Mycobacterium tuberculosis recombinant EphB expressed in Escherichia coli BL21 using CMNPC as substrate at 10 nM after 30 mins by fluorescent assay relative to control
readout.name: inhibition (%)
Kindly provide the numeric value in % only, without the unit symbol.

Query :: Which inhibition is reported for this compound? CC1C(NC(=O)Nc2ccc(F)c(F)c2F)CC2CC1C2(C)C (stereo not given)
Result :: 76.3

Query :: Now consider "CC(C)OCCNC(=O)NC12CC3CC(CC(C3)C1)C2" .
Result :: 11.9

Query :: Also "O=C(Nc1ccc(F)c(F)c1F)NC12CC3CC(CC(C3)C1)C2" , if possible.
Result :: 89.7

Query :: Ok, now "CCCCCCCNC(=O)Nc1cccc(C(F)(F)F)c1F"
Result :: 5.5

Query :: Again, but for "O=C(Nc1cccc(C(F)(F)F)c1F)NC1CCCCCCC1"
Result :: 17

###

Please provide measured inhibition for the entries that follow.
assay.target: Epoxide hydrolase B (Mycobacterium tuberculosis)
assay.text: Inhibition of Mycobacterium tuberculosis recombinant EphB expressed in Escherichia coli BL21 using CMNPC as substrate at 10 nM after 30 mins by fluorescent assay relative to control

Query :: Name the recorded inhibition for CCCCCCCNC(=O)NC1C2CC3CC(C2)CC1C3 (configuration not stated) .
Result :: 37.1%

Query :: Please do the same for CC(C)NC(=O)NC1C2CC3CC(C2)CC1C3 (configuration not stated) as well.
Result :: 27.2%

Query :: Quick one: "Cc1ccc(NC(=O)NC2CCCCCCC2)cc1Cl"
Result :: 83.6%

Query :: Also "CC(C)CCOc1ccc(NC(=O)Nc2ccc(OCCC(C)C)cc2)cc1" ?
Result :: 14.6%

Query :: Now consider O=C(Nc1ccc(F)c(F)c1F)OC1C2CC3CC(C2)CC1C3 (configuration not stated) and answer again.
Result :: 10.2%

Query :: Next: CCCNC(=O)NC1C2CC3CC(C2)CC1C3 (configuration not stated)
Result :: 51.9%

Query :: # iterate: "O=C(Nc1ccc(F)c(F)c1F)NC1CCCCC1"
Result :: 96.4%

Query :: What about CC(=O)c1cccc(NC(=O)NC2C3CC4CC(C3)CC2C4)c1 (configuration not stated) ?
Result :: 80.6%

Query :: Now consider "O=C(Nc1ccc(F)c(F)c1F)NC1CCCC1" .
Result :: 86.4%

Query :: Entry to check: "Cc1ccc(NC(=O)NCc2cccc(F)c2)cc1Cl"
Result :: 18.6%

Query :: Queued: "O=C(NCc1cccc(Cl)c1)Nc1cccc(C(F)(F)F)c1F"
Result :: 16.6%

All figures here come from ChEMBL document CHEMBL1817626.
